- test target: T1, human Granzyme B (human, UniProt P10144 21-247)
- T1 construct: Captured on a Series S Streptavidin chip for SPR; also called hGranzyme B; GzmB
- T1 sequence (P10144 21-247 limits assumed): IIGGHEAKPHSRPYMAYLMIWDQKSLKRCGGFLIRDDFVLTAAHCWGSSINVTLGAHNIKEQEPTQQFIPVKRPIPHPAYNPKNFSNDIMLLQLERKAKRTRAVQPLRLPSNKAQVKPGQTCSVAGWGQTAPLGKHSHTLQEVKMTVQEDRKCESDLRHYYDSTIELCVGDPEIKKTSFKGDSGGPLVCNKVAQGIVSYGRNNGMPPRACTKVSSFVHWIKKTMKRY
- protocol summary: SPR, Biacore 8k+, hGranzyme B captured on SA chip, single cycle kinetics, 1:1 model; Compound 41a, observed m/z 912.9
Bridge positions count the residues as written; N and C are the ends. Square brackets hold non-standard residues; d marks the D form. Pro(4S-Me) = C[C@@H]1CN[C@H](C(=O)O)C1
readout: Kd (nM)
Numeric answer only, unit nM assumed.

Quick note, Kd for {CH2CO}-FNFEDQSPDTWQ[Pro(4S-Me)]CG-NH2 (thioether N-14) [Compound 41a] landed at 2.5
